This section presents compounds with their documented IC50 values.
Test system: FaDu
procedure-details: Cytotoxicity against human FADU cells after 96 hrs by sulforhodamine B assay
Type: functional, cell-based

Guide cases for IC50, answers given:
{"columns": ["compound", "IC50"],
 "data": [
  ["C=C(C)[C@@H]1CC[C@]2([C@H](O)/C=C\\CO)CC[C@]3(C)[C@H](CC[C@@H]4[C@@]5(C)CC[C@H](OC(C)=O)C(C)(C)[C@@H]5CC[C@]43C)[C@@H]12", "10.7 µM"],
  ["C=C(C)[C@@H]1CC[C@]2([C@@H]3OC(=O)C=C3N(C)C)CC[C@]3(C)[C@H](CC[C@@H]4[C@@]5(C)CC[C@H](OC(C)=O)C(C)(C)[C@@H]5CC[C@]43C)[C@@H]12", "3.8 µM"],
  ["C=C(C)[C@@H]1CC[C@]2([C@H](O)c3nn[nH]c3C(=O)OC)CC[C@]3(C)[C@H](CC[C@@H]4[C@@]5(C)CC[C@H](OC(C)=O)C(C)(C)[C@@H]5CC[C@]43C)[C@@H]12", "15.1 µM"],
  ["C=C(C)[C@@H]1CC[C@]2([C@H](O)c3cnn(C)c3C(=O)OC)CC[C@]3(C)[C@H](CC[C@@H]4[C@@]5(C)CC[C@H](OC(C)=O)C(C)(C)[C@@H]5CC[C@]43C)[C@@H]12", "17.6 µM"],
  ["C=C(C)[C@@H]1CC[C@]2([C@H](O)c3c(C(=O)OCC)n[nH]c3C(=O)OC)CC[C@]3(C)[C@H](CC[C@@H]4[C@@]5(C)CC[C@H](OC(C)=O)C(C)(C)[C@@H]5CC[C@]43C)[C@@H]12", "13.9 µM"],
  ["C=C(C)[C@@H]1CC[C@]2([C@@H]3OC(=O)C=C3N3CCCC3)CC[C@]3(C)[C@H](CC[C@@H]4[C@@]5(C)CC[C@H](OC(C)=O)C(C)(C)[C@@H]5CC[C@]43C)[C@@H]12", "6.3 µM"],
  ["C=C(C)[C@@H]1CC[C@]2([C@H](O)C3=C(C(=O)OC)C(C(=O)OCC)N=N3)CC[C@]3(C)[C@H](CC[C@@H]4[C@@]5(C)CC[C@H](OC(C)=O)C(C)(C)[C@@H]5CC[C@]43C)[C@@H]12 (some centres undefined)", "9.9 µM"],
  ["C=C(C)[C@@H]1CC[C@]2([C@H](O)C#CCO)CC[C@]3(C)[C@H](CC[C@@H]4[C@@]5(C)CC[C@H](OC(C)=O)C(C)(C)[C@@H]5CC[C@]43C)[C@@H]12", "11.2 µM"]
]}

Next compound, please.
Entry C=C(C)[C@@H]1CC[C@]2([C@@H]3OC(=O)C=C3NC3CC3)CC[C@]3(C)[C@H](CC[C@@H]4[C@@]5(C)CC[C@H](OC(C)=O)C(C)(C)[C@@H]5CC[C@]43C)[C@@H]12 : IC50 on FaDu = 6 µM

###

Test system: 8505C
procedure-details: Cytotoxicity against human 8505C cells after 96 hrs by sulforhodamine B assay
Type: functional, cell-based
assay-metric: pIC50
As a rule, pIC50 stands for the negative log10 of the concentration, concentration in M.

Guide cases for pIC50, answers given:
{"columns": ["molecule-smiles", "pIC50"],
 "data": [
  ["C=C(C)[C@@H]1CC[C@]2([C@H](O)/C=C\\CO)CC[C@]3(C)[C@H](CC[C@@H]4[C@@]5(C)CC[C@H](OC(C)=O)C(C)(C)[C@@H]5CC[C@]43C)[C@@H]12", 4.75],
  ["C=C(C)[C@@H]1CC[C@]2([C@H](O)c3c(C(=O)OCC)n[nH]c3C(=O)OC)CC[C@]3(C)[C@H](CC[C@@H]4[C@@]5(C)CC[C@H](OC(C)=O)C(C)(C)[C@@H]5CC[C@]43C)[C@@H]12", 4.92]
]}

In the following, a different compound is considered.
Just so you know, measured pIC50 for C=C(C)[C@@H]1CC[C@]2([C@H](O)C#CCO)CC[C@]3(C)[C@H](CC[C@@H]4[C@@]5(C)CC[C@H](OC(C)=O)C(C)(C)[C@@H]5CC[C@]43C)[C@@H]12 came out at 5.08

###

procedure-details: Cytotoxicity against human A253 cells after 96 hrs by sulforhodamine B assay
Type: functional, cell-based
condition-set: A253, 96 h
assay-metric: IC50 (µM)
// units = µM; emit number, no label

The following compounds have reported results that may help.
{"columns": ["compound", "assay-metric", "reported"],
 "data": [
  ["C=C(C)[C@@H]1CC[C@]2([C@H](O)C#CCO)CC[C@]3(C)[C@H](CC[C@@H]4[C@@]5(C)CC[C@H](OC(C)=O)C(C)(C)[C@@H]5CC[C@]43C)[C@@H]12", "IC50", 10.3],
  ["C=C(C)[C@@H]1CC[C@]2([C@H](O)c3c(C(=O)OCC)n[nH]c3C(=O)OC)CC[C@]3(C)[C@H](CC[C@@H]4[C@@]5(C)CC[C@H](OC(C)=O)C(C)(C)[C@@H]5CC[C@]43C)[C@@H]12", "IC50", 13.2],
  ["C=C(C)[C@@H]1CC[C@]2([C@H](O)c3nn[nH]c3C(=O)OC)CC[C@]3(C)[C@H](CC[C@@H]4[C@@]5(C)CC[C@H](OC(C)=O)C(C)(C)[C@@H]5CC[C@]43C)[C@@H]12", "IC50", 10.3]
]}

Would you kindly look at the next entry?
The compound listed as C=C(C)[C@@H]1CC[C@]2([C@H](O)C3=C(C(=O)OC)C(C(=O)OCC)N=N3)CC[C@]3(C)[C@H](CC[C@@H]4[C@@]5(C)CC[C@H](OC(C)=O)C(C)(C)[C@@H]5CC[C@]43C)[C@@H]12 (some centres undefined) shows IC50 equal to 12.5

Data origin, for the record: ChEMBL document CHEMBL1250553
